# Tested on: S. aureus ATCC 29213
# Format: cell-based, Staphylococcus aureus
# particulars: ATCC 29213, 5 h
# Protocol: Minimal bactericidal concentrations (MBCs) were measured using the method which has been adopted from National Committee for Clinical Laboratory Standards (NCCLS), with modifications. […] On the following day, the number of colonies was evaluated and the initial CFU/well retrospectively calculated. The minimum bactericidal concentrations (μM) were determined as the lowest concentration of the peptides that prevented more than 99.9% bacteria growth. […]
Where no end group is shown, it is not given here.
Binarize MBC with ZnCl2 at 8 µM; below is condition met, at or above is condition not met.

INSERT INTO assay_data (substance, classification) VALUES
  ('AKLWLKAAKLWLKAAKLWLKA-NH2 [AA3]', 'condition met'),
  ('GKLWLKGGKLWLKG-NH2 [GG2]', 'condition not met'),
  ('AKLWLKAAKLWLKAAKLWLKAAKLWLKA-NH2 [AA4]', 'condition not met');

Please find the next substance below.
Asked: Check if MBC with ZnCl2 falls below 8 µM for GKLWLKGGKLWLKGGKLWLKG-NH2 [GG3] .
Given back: condition not met

###

# System: S. aureus ATCC29213
# Assay type: cell-based, Staphylococcus aureus
# particulars: ATCC 29213, 5 h
# Description: Minimal bactericidal concentrations (MBCs) were measured using the method which has been adopted from National Committee for Clinical Laboratory Standards (NCCLS), with modifications. […] On the following day, the number of colonies was evaluated and the initial CFU/well retrospectively calculated. The minimum bactericidal concentrations (μM) were determined as the lowest concentration of the peptides that prevented more than 99.9% bacteria growth.
Where no end group is shown, it is not given here.
quantity measured: Minimum bactericidal concentration (µM)
Use µM as the unit, but write only the number.

As a guide, the following entries are already answered.
INSERT INTO results (substance, measured_target, quantity_measured, result_value) VALUES
  ('AKLWLKAAKLWLKAAKLWLKAAKLWLKA-NH2 [AA4]', 'S. aureus ATCC29213', 'Minimum bactericidal concentration', 32),
  ('GKLWGLKGKLWGLKGKLWGLK-NH2 [GG3s1]', 'S. aureus ATCC29213', 'Minimum bactericidal concentration', 128),
  ('GKLWLKGGKLWLKG-NH2 [GG2]', 'S. aureus ATCC29213', 'Minimum bactericidal concentration', 128),
  ('AKLWLKAAKLWLKA-NH2 [AA2]', 'S. aureus ATCC29213', 'Minimum bactericidal concentration', 16),
  ('AKLWALKAKLWALKAKLWALK-NH2 [AA3s1]', 'S. aureus ATCC29213', 'Minimum bactericidal concentration', 16);

Now for a further substance.
Asked: Hi! What's the reported Minimum bactericidal concentration for GKLWLKGGKLWLKGGKLWLKGGKLWLKG-NH2 [GG4] on S. aureus ATCC29213?
Given back: 128

###

# Tested on: E. coli ATCC 25922
# Type: cell-based, Escherichia coli
# particulars: ATCC 25922, 5 h
Where no end group is shown, it is not given here.
quantity measured: MBC with MgCl2 (µM)
Use µM as the unit, but write only the number.

As a guide, the following entries are already answered.
INSERT INTO results (substance, unit_string, result_value) VALUES
  ('AKLWLKAAKLWLKA-NH2 [AA2]', 'µM', 2),
  ('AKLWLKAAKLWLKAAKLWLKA-NH2 [AA3]', 'µM', 2),
  ('GKLWLKGGKLWLKGGKLWLKGGKLWLKG-NH2 [GG4]', 'µM', 4),
  ('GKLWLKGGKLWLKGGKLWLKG-NH2 [GG3]', 'µM', 2),
  ('AKLWLKAAKLWLKAAKLWLKAAKLWLKA-NH2 [AA4]', 'µM', 8);

Now for a further substance.
Asked: Hi! What's the reported MBC with MgCl2 for GKLWLKGGKLWLKG-NH2 [GG2] on E. coli ATCC 25922?
Given back: 16

###

# System: 3 gram-positive strains tested
# particulars: MHC/GM for 3 gram-positive strains; >128 counted as 256 μM
# Experimental: In short, 50 μL peptide solutions were pipetted into microtiter plates at various concentrations ranging from 1 to 128 μM. Freshly grown bacteria were added to the each well in a density of 0.5–1 × 10^6 CFUmL^−1. […] On the following day, the number of colonies was evaluated and the initial CFU/well retrospectively calculated. The minimum bactericidal concentrations (μM) were determined as the lowest concentration of the peptides that prevented more than 99.9% bacteria growth. […]
Where no end group is shown, it is not given here.
Recorded TI (therapeutic index), gram-positive for the following substances
Keep the answer to the number alone.

Asked: Any idea what its TI (therapeutic index), gram-positive is? The substance is GKLWLKGGKLWLKGGKLWLKGGKLWLKG-NH2 [GG4]
Given back: 0.10

###

# System: E. coli UB1005
# Format: cell-based, Escherichia coli
# particulars: UB1005, 5 h
Where no end group is shown, it is not given here.
Recorded Minimum bactericidal concentration for the following substances
Use µM as the unit, but write only the number.

As a guide, the following entries are already answered.
INSERT INTO assay_data (substance, result_value) VALUES
  ('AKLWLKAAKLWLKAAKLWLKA-NH2 [AA3]', 2),
  ('GLWKGKLGLWKGKLGLWKGKL-NH2 [GG3s2]', 4),
  ('GKLWLKGGKLWLKG-NH2 [GG2]', 32),
  ('GKLWGLKGKLWGLKGKLWGLK-NH2 [GG3s1]', 4),
  ('AKLWALKAKLWALKAKLWALK-NH2 [AA3s1]', 4),
  ('AKLWLKAAKLWLKA-NH2 [AA2]', 8),
  ('GKLWLKGGKLWLKGGKLWLKGGKLWLKG-NH2 [GG4]', 8),
  ('AKLWLKAAKLWLKAAKLWLKAAKLWLKA-NH2 [AA4]', 32);

Now for a further substance.
Asked: Any idea what its Minimum bactericidal concentration is? The substance is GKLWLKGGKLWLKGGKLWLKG-NH2 [GG3]
Given back: 2

###

# Test system: S. aureus ATCC29213
# Assay type: cell-based, Staphylococcus aureus
# particulars: ATCC 29213, 5 h
Where no end group is shown, it is not given here.
Recorded Minimum bactericidal concentration for the following substances

As a guide, the following entries are already answered.
INSERT INTO measurements (substance, measured_target, result_value) VALUES
  ('GLWKGKLGLWKGKLGLWKGKL-NH2 [GG3s2]', 'S. aureus ATCC29213', '128 µM'),
  ('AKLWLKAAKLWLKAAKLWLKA-NH2 [AA3]', 'S. aureus ATCC29213', '4 µM'),
  ('AKLWLKA-NH2 [AA1]', 'S. aureus ATCC29213', '>128 µM');

Asked: Any idea what its Minimum bactericidal concentration is? The substance is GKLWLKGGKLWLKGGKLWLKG-NH2 [GG3]
Given back: 16 µM

###

# Test system: E. coli ATCC 25922
# Format: cell-based, Escherichia coli
# particulars: ATCC 25922, 5 h
Where no end group is shown, it is not given here.
quantity measured: MBC with FeCl3

As a guide, the following entries are already answered.
INSERT INTO results (substance, measured_target, quantity_measured, result_value) VALUES
  ('AKLWLKAAKLWLKA-NH2 [AA2]', 'E. coli ATCC 25922', 'MBC with FeCl3', '1 µM'),
  ('AKLWLKAAKLWLKAAKLWLKAAKLWLKA-NH2 [AA4]', 'E. coli ATCC 25922', 'MBC with FeCl3', '8 µM'),
  ('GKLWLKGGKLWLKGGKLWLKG-NH2 [GG3]', 'E. coli ATCC 25922', 'MBC with FeCl3', '1 µM'),
  ('GKLWLKGGKLWLKG-NH2 [GG2]', 'E. coli ATCC 25922', 'MBC with FeCl3', '4 µM'),
  ('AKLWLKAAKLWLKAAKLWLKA-NH2 [AA3]', 'E. coli ATCC 25922', 'MBC with FeCl3', '2 µM');

Now for a further substance.
Asked: Any idea what its MBC with FeCl3 is? The substance is GKLWLKGGKLWLKGGKLWLKGGKLWLKG-NH2 [GG4]
Given back: 4 µM

###

Recorded MBC with KCl for the following substances
# Test system: E. coli ATCC 25922
# Type: cell-based, Escherichia coli
# particulars: ATCC 25922, 5 h
Where no end group is shown, it is not given here.
Use µM as the unit, but write only the number.

INSERT INTO results (substance, quantity_measured, result_value) VALUES
  ('GKLWLKGGKLWLKG-NH2 [GG2]', 'MBC with KCl', 4),
  ('AKLWLKAAKLWLKA-NH2 [AA2]', 'MBC with KCl', 1),
  ('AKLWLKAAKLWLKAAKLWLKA-NH2 [AA3]', 'MBC with KCl', 1),
  ('GKLWLKGGKLWLKGGKLWLKGGKLWLKG-NH2 [GG4]', 'MBC with KCl', 4),
  ('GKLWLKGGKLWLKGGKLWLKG-NH2 [GG3]', 'MBC with KCl', 2);

Asked: Hi! What's the reported MBC with KCl for AKLWLKAAKLWLKAAKLWLKAAKLWLKA-NH2 [AA4] on E. coli ATCC 25922?
Given back: 4

Sourced from paper PMC4632126
